# Test system: SNB-19
# experimental-protocol: NCI tumour cell line growth inhibition, 48 h
Calls of active or inactive are those of the source. Rule as the data show it: active = GI50 up to about 1.1 µM and inactive = higher.
recorded-metric: GI50

Consider the following illustrative entries.
CN(C)S(=O)(=O)n1cnc(CO)c1 = > 100 µM (inactive)
COc1ncc(C#CC(=O)c2ccccc2OC)c(OC)n1 = 15 µM (inactive)
CNc1nc2n(CCO)c(-c3ccccc3)c(-c3ccccc3)nc-2c(=O)n1 = > 50 µM (inactive)

Entry under review: CNC(C#N)c1ccc(OC)cc1 (stereo not drawn) . Reported GI50?
> 100 µM (inactive)

Entry under review: Cc1c2ccccc2nc2[nH]c3ccncc3c12 . Reported GI50?
36.1 µM (inactive)

Entry under review: CC(C)C1CO[C@]2(C)CCC(=O)N12 (stereo partly drawn) . Reported GI50?
> 100 µM (inactive)

Entry under review: CC(=O)OCC(OC(C)=O)C(OC(C)=O)C(OC(C)=O)C(C=NN(C(C)=O)S(=O)(=O)c1ccc(/C=C2\NC(=O)N(C)C2=O)cc1)OC(C)=O (stereo not drawn) . Reported GI50?
38.2 µM (inactive)

Entry under review: COCOCCC#CCO . Reported GI50?
> 100 µM (inactive)

Entry under review: Clc1ccc(CCN2CCOCC2)c(Cl)c1 . Reported GI50?
> 100 µM (inactive)

Entry under review: N=c1oc2ccccc2cc1-c1nc2ccccc2c(=O)[nH]1 . Reported GI50?
30.1 µM (inactive)

Entry under review: C[C@@H](NC1CCC[C@H]1O)c1ccccc1 (stereo partly drawn) . Reported GI50?
> 100 µM (inactive)

Entry under review: N#C/C(=C\c1cc(Br)c(O)c(Br)c1)c1cccnc1 . Reported GI50?
39.1 µM (inactive)

Entry under review: O=c1n(CC2CO2)c(=O)n(CC2CO2)c(=O)n1CC1CO1 (stereo not drawn) [TEROXIRONE] . Reported GI50?
26.2 µM (inactive)

Entry under review: CCCCCCCCCCCCCCCCCc1cccc(OCOCCOC)c1CO . Reported GI50?
> 100 µM (inactive)

Entry under review: C1CN2CCN3CCN4CCN1[PH]243 . Reported GI50?
> 100 µM (inactive)

Entry under review: COc1cc(C2c3[nH]c4ccc(F)cc4c3C[C@H]3COC(=O)N23)cc(OC)c1O (stereo partly drawn) . Reported GI50?
21.3 µM (inactive)

Entry under review: Cc1ccc(-c2cc(=O)c3cc(C)c(C)c(C(=O)O)c3o2)cc1N . Reported GI50?
> 100 µM (inactive)

Entry under review: O=C1Nc2ccccc2/C1=N/NC(=O)C(O)(c1ccccc1)c1ccccc1 . Reported GI50?
16.7 µM (inactive)

---

# Tested on: RPMI-8226
# experimental-protocol: NCI tumour cell line growth inhibition, 48 h
The source made the active and inactive calls. Rule as the data show it: active = GI50 up to about 1.1 µM and inactive = higher.
recorded-metric: GI50

O=c1c(C(c2ccc3ccccc3c2)c2c(O)oc3cc(O)ccc3c2=O)c(O)oc2cc(O)ccc12 = 27.5 µM (inactive)
Clc1ccc(-n2nnc(C3=NCCCN3)c2-c2ccccc2)cc1 = > 100 µM (inactive)
OCC(O)C(O)C(O)c1nn(-c2ccccc2)c2nc3cc(Cl)c(Cl)cc3nc12 (stereo unspecified) = 25.4 µM (inactive)
C/N=C/N(C)c1c2ccccc2nc2ccccc12 = > 100 µM (inactive)
COCOCCC#CCO = > 100 µM (inactive)
O=C(Nc1ccn(C2CC(O)C(CO)O2)c(=O)n1)c1ccccc1 (stereo unspecified) = > 100 µM (inactive)
COC(=O)/C(=C\c1ccc(N(CCC#N)CCC#N)cc1)NC(=O)c1cc([N+](=O)[O-])ccc1Cl = > 100 µM (inactive)
C=CCNC(=S)N/C=C1\C(=O)Oc2ccccc2C1=O = > 100 µM (inactive)

Entry under review: Cc1cc2c(=O)c3ccccc3[nH]c2c(C(=O)O)c1C . Reported GI50?
> 100 µM (inactive)

Entry under review: C[C@@H]1CC[C@@]2(OC1)O[C@H]1[C@@H](O)[C@H]3[C@@H]4CC[C@H]5C[C@@H](O[C@@H]6O[C@H](CO)[C@H](O[C@@H]7O[C@H](CO)C(O)[C@H](O[C@@H]8OC[C@@H](O)[C@H](O)[C@H]8O)[C@H]7O[C@@H]7O[C@H](CO)[C@H](O)[C@H](O[C@@H]8O[C@H](CO)[C@@H](O)[C@H](O)[C@H]8O)[C@H]7O)[C@H](O)[C@H]6O)[C@H](O)C[C@]5(C)[C@H]4CC[C@]3(C)[C@H]1[C@@H]2C (stereo partly specified) . Reported GI50?
3.15 µM (inactive)

Entry under review: CCOC(=O)NC(Nc1c(F)c(F)c(F)c(F)c1F)(C(F)(F)F)C(F)(F)F . Reported GI50?
> 100 µM (inactive)
